Experiment: Selectivity index, ratio of IC50 for antiproliferative activity against human L02 cells to IC50 for antiproliferative activity against human HCT-116 cells
Format: toxicity, cell-based
Details: L02 cells versus HCT-116 cells, read-out: Ratio IC50
READOUT_KIND: selectivity ratio
Number, no unit, nothing else.

Documented selectivity ratio of `CC(=O)OC(C)(C)/C=C/C(=O)[C@](C)(O)[C@H]1[C@H](O)C[C@@]2(C)[C@@H]3CC=C4[C@@H](C[C@H](OC(=O)c5cn(-c6ccc(F)cc6)nn5)C(=O)C4(C)C)[C@]3(C)C(=O)C[C@]12C` : 2.58

Per the record, `CC(=O)OC(C)(C)/C=C/C(=O)[C@](C)(O)[C@H]1[C@H](O)C[C@@]2(C)[C@@H]3CC=C4[C@@H](C[C@H](OC(=O)Cn5ncn(-c6ccc(Br)cc6)c5=O)C(=O)C4(C)C)[C@]3(C)C(=O)C[C@]12C` has selectivity ratio of 0.41

Data point: `CC(=O)OC(C)(C)/C=C/C(=O)[C@](C)(O)[C@H]1[C@H](O)C[C@@]2(C)[C@@H]3CC=C4[C@@H](C[C@H](OC(=O)Cn5ncn(-c6ccccc6)c5=O)C(=O)C4(C)C)[C@]3(C)C(=O)C[C@]12C` ; selectivity ratio = 1.57

Briefly, selectivity ratio measured for `CC(=O)OC(C)(C)/C=C/C(=O)[C@](C)(O)[C@H]1[C@H](O)C[C@@]2(C)[C@@H]3CC=C4[C@@H](C[C@H](OC(=O)Cn5ncn(-c6ccc(C)cc6)c5=O)C(=O)C4(C)C)[C@]3(C)C(=O)C[C@]12C` : 0.33

====

Test: Antiproliferative activity against human L02 cells assessed as cell growth inhibition incubated for 72 hrs by SRB assay
Format: toxicity, cell-based
READOUT_KIND: IC50 at 72 h (nM)
Answer with a number only, understood to be in nM.

`CC(=O)OC(C)(C)/C=C/C(=O)[C@](C)(O)[C@H]1[C@H](O)C[C@@]2(C)[C@@H]3CC=C4[C@@H](C[C@H](OC(=O)Cn5ncn(-c6ccc(Br)cc6)c5=O)C(=O)C4(C)C)[C@]3(C)C(=O)C[C@]12C` has a reported IC50 at 72 h of 31

The molecule listed as `CC(=O)OC(C)(C)/C=C/C(=O)[C@](C)(O)[C@H]1[C@H](O)C[C@@]2(C)[C@@H]3CC=C4[C@@H](C[C@H](OC(=O)Cn5ncn(-c6ccc(Cl)cc6)c5=O)C(=O)C4(C)C)[C@]3(C)C(=O)C[C@]12C` has a reported IC50 at 72 h of 31

====

Assay: Selectivity index, ratio of IC50 for antiproliferative activity against human L02 cells to IC50 for antiproliferative activity against human BXPC-3 cells
Format: toxicity, cell-based
Conditions: L02 cells versus BXPC-3 cells, read-out: Ratio IC50
READOUT_KIND: selectivity ratio
// return just the number, without any unit appended

The value of selectivity ratio measured for the compound `CC(=O)OC(C)(C)/C=C/C(=O)[C@](C)(O)[C@H]1[C@H](O)C[C@@]2(C)[C@@H]3CC=C4[C@@H](C[C@H](OC(=O)Cn5ncn(-c6ccc(F)cc6)c5=O)C(=O)C4(C)C)[C@]3(C)C(=O)C[C@]12C` turned out to be 5.56

The reported value for `CC(=O)OC(C)(C)/C=C/C(=O)[C@](C)(O)[C@H]1[C@H](O)C[C@@]2(C)[C@@H]3CC=C4[C@@H](C[C@H](O)C(=O)C4(C)C)[C@]3(C)C(=O)C[C@]12C` in terms of selectivity ratio is 0.5

====

Assignment: determine reported selectivity ratio for the given compounds.
Assay: Selectivity index, ratio of IC50 for antiproliferative activity against human L02 cells to IC50 for antiproliferative activity against human MCF7 cells
Format: toxicity, cell-based
Details: L02 cells versus MCF7 cells, read-out: Ratio IC50
# print the numeric value only

What the record says about `CC(=O)OC(C)(C)/C=C/C(=O)[C@](C)(O)[C@H]1[C@H](O)C[C@@]2(C)[C@@H]3CC=C4[C@@H](C[C@H](O)C(=O)C4(C)C)[C@]3(C)C(=O)C[C@]12C` : selectivity ratio is 0.23

Memo: `CC(=O)OC(C)(C)/C=C/C(=O)[C@](C)(O)[C@H]1[C@H](O)C[C@@]2(C)[C@@H]3CC=C4[C@@H](C[C@H](OC(=O)Cn5ncn(-c6ccc(F)cc6)c5=O)C(=O)C4(C)C)[C@]3(C)C(=O)C[C@]12C` , reported selectivity ratio: 1.79

====

Assay: Selectivity index, ratio of IC50 for antiproliferative activity against human L02 cells to IC50 for antiproliferative activity against human HeLa cells
Format: toxicity, cell-based
Settings: L02 cells versus HeLa cells, read-out: Ratio IC50
READOUT_KIND: selectivity ratio
I'd appreciate a reply containing only the number, no unit.

Reported selectivity ratio for `CC(=O)OC(C)(C)/C=C/C(=O)[C@](C)(O)[C@H]1[C@H](O)C[C@@]2(C)[C@@H]3CC=C4[C@@H](C[C@H](OC(=O)Cn5ncn(-c6ccc(F)cc6)c5=O)C(=O)C4(C)C)[C@]3(C)C(=O)C[C@]12C` was 6.67

Sure, the documented selectivity ratio for `CC(=O)OC(C)(C)/C=C/C(=O)[C@](C)(O)[C@H]1[C@H](O)C[C@@]2(C)[C@@H]3CC=C4[C@@H](C[C@H](O)C(=O)C4(C)C)[C@]3(C)C(=O)C[C@]12C` is 0.46

====

What inhibition at 72 h, 0.1 µM was measured for each of the following?
Experiment: Antiproliferative activity against human L02 cells assessed as cell growth inhibition at 0.1 uM incubated for 72 hrs by SRB assay
Assay type: toxicity, cell-based
A number alone suffices; assume %.

Data point: `CC(=O)OC(C)(C)/C=C/C(=O)[C@](C)(O)[C@H]1[C@H](O)C[C@@]2(C)[C@@H]3CC=C4[C@@H](C[C@H](OC(=O)Cn5ncn(-c6ccc(F)cc6)c5=O)C(=O)C4(C)C)[C@]3(C)C(=O)C[C@]12C` ; inhibition at 72 h, 0.1 µM = 50.5

# compound `CC(=O)OC(C)(C)/C=C/C(=O)[C@](C)(O)[C@H]1[C@H](O)C[C@@]2(C)[C@@H]3CC=C4[C@@H](C[C@H](OC(=O)/C=C/c5ccc(F)cc5)C(=O)C4(C)C)[C@]3(C)C(=O)C[C@]12C` ; its inhibition at 72 h, 0.1 µM = -3.78

So for `CC(=O)OC(C)(C)/C=C/C(=O)[C@](C)(O)[C@H]1[C@H](OC(=O)/C=C/c2ccc(C)cc2)C[C@@]2(C)[C@@H]3CC=C4[C@@H](C[C@H](OC(=O)/C=C/c5ccc(C)cc5)C(=O)C4(C)C)[C@]3(C)C(=O)C[C@]12C` , the logged inhibition at 72 h, 0.1 µM turned out to be -13.3

Consider `CC(=O)OC(C)(C)/C=C/C(=O)[C@](C)(O)[C@H]1[C@H](O)C[C@@]2(C)[C@@H]3CC=C4[C@@H](C[C@H](OC(=O)Cn5ncn(-c6ccc(C)cc6)c5=O)C(=O)C4(C)C)[C@]3(C)C(=O)C[C@]12C` . Its measured inhibition at 72 h, 0.1 µM is 36.5

====

Could you please report measured IC50 at 72 h for the items listed next?
Assay: Antiproliferative activity against human L02 cells assessed as cell growth inhibition incubated for 72 hrs by SRB assay
Format: toxicity, cell-based
Reply numerically in nM, unit not repeated.

Entry `CC(=O)OC(C)(C)/C=C/C(=O)[C@](C)(O)[C@H]1[C@H](O)C[C@@]2(C)[C@@H]3CC=C4[C@@H](C[C@H](OC(=O)c5ccccn5)C(=O)C4(C)C)[C@]3(C)C(=O)C[C@]12C` , IC50 at 72 h reported as 34

For `CC(=O)OC(C)(C)/C=C/C(=O)[C@](C)(O)[C@H]1[C@H](O)C[C@@]2(C)[C@@H]3CC=C4[C@@H](C[C@H](OC(=O)Cn5ncn(-c6ccc(F)cc6)c5=O)C(=O)C4(C)C)[C@]3(C)C(=O)C[C@]12C` the compound record lists IC50 at 72 h as 100

The reported value for `CC(=O)OC(C)(C)/C=C/C(=O)[C@](C)(O)[C@H]1[C@H](O)C[C@@]2(C)[C@@H]3CC=C4[C@@H](C[C@H](OC(=O)Cn5ncn(-c6ccc(C)cc6)c5=O)C(=O)C4(C)C)[C@]3(C)C(=O)C[C@]12C` in terms of IC50 at 72 h is 40

Query `CC(=O)OC(C)(C)/C=C/C(=O)[C@](C)(O)[C@H]1[C@H](O)C[C@@]2(C)[C@@H]3CC=C4[C@@H](C[C@H](OC(=O)c5cn(-c6ccc(F)cc6)nn5)C(=O)C4(C)C)[C@]3(C)C(=O)C[C@]12C` yields IC50 at 72 h of 80

====

Test: Antiproliferative activity against human L02 cells assessed as cell growth inhibition at 1 uM incubated for 72 hrs by SRB assay
Assay type: toxicity, cell-based
Record form. Attribute: inhibition at 72 h, 1 µM. Fill in for each entry.
Report the value in % with no unit label.

Form: compound = `COc1ccc(/C=C/C(=O)O[C@@H]2C[C@@]3(C)[C@@H]4CC=C5[C@@H](C[C@H](O)C(=O)C5(C)C)[C@]4(C)C(=O)C[C@]3(C)[C@H]2[C@@](C)(O)C(=O)/C=C/C(C)(C)OC(C)=O)cc1` ; inhibition at 72 h, 1 µM = 47.4

Just so you know, measured inhibition at 72 h, 1 µM for `CC(=O)OC(C)(C)/C=C/C(=O)[C@](C)(O)[C@H]1[C@H](OC(=O)/C=C/c2ccc(C)cc2)C[C@@]2(C)[C@@H]3CC=C4[C@@H](C[C@H](O)C(=O)C4(C)C)[C@]3(C)C(=O)C[C@]12C` came out at 7.53

Entry `CC(=O)OC(C)(C)/C=C/C(=O)[C@](C)(O)[C@H]1[C@H](O)C[C@@]2(C)[C@@H]3CC=C4[C@@H](C[C@H](OC(=O)Cn5ncn(-c6ccccc6)c5=O)C(=O)C4(C)C)[C@]3(C)C(=O)C[C@]12C` — recorded inhibition at 72 h, 1 µM = 71.6

Please fill in: inhibition at 72 h, 1 µM reported for `CC(=O)OC(C)(C)/C=C/C(=O)[C@](C)(O)[C@H]1[C@H](O)C[C@@]2(C)[C@@H]3CC=C4[C@@H](C[C@H](OC(=O)Cn5ncn(-c6ccc(F)cc6)c5=O)C(=O)C4(C)C)[C@]3(C)C(=O)C[C@]12C` = 68.9

Summary for this compound, `CC(=O)OC(C)(C)/C=C/C(=O)[C@](C)(O)[C@H]1[C@H](O)C[C@@]2(C)[C@@H]3CC=C4[C@@H](C[C@H](OC(=O)c5cccnc5)C(=O)C4(C)C)[C@]3(C)C(=O)C[C@]12C` : inhibition at 72 h, 1 µM is 68.3

Summary for this compound, `CC(=O)OC(C)(C)/C=C/C(=O)[C@](C)(O)[C@H]1[C@H](O)C[C@@]2(C)[C@@H]3CC=C4[C@@H](C[C@H](OC(=O)c5cn(-c6ccc(Cl)cc6)nn5)C(=O)C4(C)C)[C@]3(C)C(=O)C[C@]12C` : inhibition at 72 h, 1 µM is 72.6

Lookup result for `CC(=O)OC(C)(C)/C=C/C(=O)[C@](C)(O)[C@H]1[C@H](O)C[C@@]2(C)[C@@H]3CC=C4[C@@H](C[C@H](OC(=O)/C=C/c5ccc(F)cc5)C(=O)C4(C)C)[C@]3(C)C(=O)C[C@]12C` ; measured inhibition at 72 h, 1 µM: 1.62

# inhibition at 72 h, 1 µM of `CC(=O)OC(C)(C)/C=C/C(=O)[C@](C)(O)[C@H]1[C@H](O)C[C@@]2(C)[C@@H]3CC=C4[C@@H](C[C@H](OC(=O)/C=C/c5ccc(C)cc5)C(=O)C4(C)C)[C@]3(C)C(=O)C[C@]12C` = 44.1

Kindly note the recorded inhibition at 72 h, 1 µM for `CC(=O)OC(C)(C)/C=C/C(=O)[C@](C)(O)[C@H]1[C@H](O)C[C@@]2(C)[C@@H]3CC=C4[C@@H](C[C@H](OC(=O)c5cn(-c6ccc(F)cc6)nn5)C(=O)C4(C)C)[C@]3(C)C(=O)C[C@]12C` , which is 71.9

Reported inhibition at 72 h, 1 µM ( `CC(=O)OC(C)(C)/C=C/C(=O)[C@](C)(O)[C@H]1[C@H](OC(=O)/C=C/c2ccccc2)C[C@@]2(C)[C@@H]3CC=C4[C@@H](C[C@H](OC(=O)/C=C/c5ccccc5)C(=O)C4(C)C)[C@]3(C)C(=O)C[C@]12C` ) = 11.7

From: ChEMBL document CHEMBL5365466
